Test: Half life in ob/ob mice
Format: ADME, organism-based
Conditions: mouse, in vivo
Endpoint Name: half-life

{"Line Notation": "COC(=O)C(Cc1ccc(C(F)(F)P(=O)(O)O)cc1)(Cc1ccc(C(F)(F)P(=O)(O)O)cc1)C(=O)OCc1ccccc1", "Observed": "< 30 min"}

---

Biological target: Tyrosine-protein phosphatase non-receptor type 1 (Homo sapiens, UniProt P18031)
Sequence (P18031 whole entry): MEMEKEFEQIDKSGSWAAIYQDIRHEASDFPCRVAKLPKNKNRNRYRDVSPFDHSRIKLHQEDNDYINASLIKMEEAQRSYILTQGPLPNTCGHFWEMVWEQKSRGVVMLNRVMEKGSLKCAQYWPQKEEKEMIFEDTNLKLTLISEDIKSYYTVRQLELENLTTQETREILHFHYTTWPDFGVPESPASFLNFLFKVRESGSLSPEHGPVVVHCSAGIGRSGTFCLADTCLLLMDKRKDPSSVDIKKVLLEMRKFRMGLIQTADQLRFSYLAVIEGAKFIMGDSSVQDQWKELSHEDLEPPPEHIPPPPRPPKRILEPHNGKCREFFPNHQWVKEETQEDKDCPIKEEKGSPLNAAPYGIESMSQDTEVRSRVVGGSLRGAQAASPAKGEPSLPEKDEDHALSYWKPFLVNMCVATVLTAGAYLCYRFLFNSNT
Assay: In vitro inhibitory activity against protein tyrosine phosphatase 1B (PTP1B) was determined in fluorescein diphosphate (FDP) assay
hey, just use Satisfied if measured IC50 is less than 0.2 µM, otherwise Not satisfied

{"Compound": "CC(=O)NS(=O)(=O)c1ccc(CC(Cc2ccc(C(F)(F)P(=O)(O)O)cc2)(C(=O)OCc2ccccc2)C(=O)OCc2ccccc2)cc1", "Experimental Target": "Tyrosine-protein phosphatase non-receptor type 1 (Homo sapiens, UniProt P18031)", "Assigned Label": "Satisfied"}
{"Compound": "CS(=O)(=O)c1ccc(CC(Cc2ccc(C(F)(F)P(=O)(O)O)cc2)(C(=O)OCc2ccccc2)C(=O)OCc2ccccc2)cc1", "Experimental Target": "Tyrosine-protein phosphatase non-receptor type 1 (Homo sapiens, UniProt P18031)", "Assigned Label": "Not satisfied"}
{"Compound": "COC(=O)C(Cc1ccc(C(F)(F)P(=O)(O)O)cc1)(Cc1ccc(C(F)(F)P(=O)(O)O)cc1)C(=O)OCc1ccccc1", "Experimental Target": "Tyrosine-protein phosphatase non-receptor type 1 (Homo sapiens, UniProt P18031)", "Assigned Label": "Satisfied"}
{"Compound": "O=C(c1ccccc1)C(Cc1ccc(C(F)(F)P(=O)(O)O)c(-c2ccccc2)c1)c1ccccc1 (stereo not drawn)", "Experimental Target": "Tyrosine-protein phosphatase non-receptor type 1 (Homo sapiens, UniProt P18031)", "Assigned Label": "Not satisfied"}
{"Compound": "O=C(c1ccccc1)C(Cc1ccc(C(F)(F)P(=O)(O)O)cc1)c1ccccc1 (stereo not drawn)", "Experimental Target": "Tyrosine-protein phosphatase non-receptor type 1 (Homo sapiens, UniProt P18031)", "Assigned Label": "Not satisfied"}
{"Compound": "O=C(c1ccccc1)C(Cc1ccc(C(F)(F)P(=O)(O)O)c(Cl)c1)c1ccccc1 (stereo not drawn)", "Experimental Target": "Tyrosine-protein phosphatase non-receptor type 1 (Homo sapiens, UniProt P18031)", "Assigned Label": "Not satisfied"}
{"Compound": "O=C(OCc1ccccc1)C(Cc1ccc(C(F)(F)C(=O)O)cc1)(Cc1ccc(C(F)(F)P(=O)(O)O)cc1)C(=O)OCc1ccccc1", "Experimental Target": "Tyrosine-protein phosphatase non-receptor type 1 (Homo sapiens, UniProt P18031)", "Assigned Label": "Satisfied"}
{"Compound": "O=C(c1ccccc1)C(C/C=C/c1ccccc1)(Cc1ccc(C(F)(F)P(=O)(O)O)cc1)c1ccccc1 (stereo not drawn)", "Experimental Target": "Tyrosine-protein phosphatase non-receptor type 1 (Homo sapiens, UniProt P18031)", "Assigned Label": "Satisfied"}
{"Compound": "O=C(OCc1ccccc1)C(Cc1ccc(C(F)(F)P(=O)(O)O)cc1)(Cc1ccc(C(F)(F)P(=O)(O)O)cc1)C(=O)OCc1ccccc1", "Experimental Target": "Tyrosine-protein phosphatase non-receptor type 1 (Homo sapiens, UniProt P18031)", "Assigned Label": "Satisfied"}
{"Compound": "O=P(O)(O)C(F)(F)c1ccc(CC(Cc2ccc(C(F)(F)P(=O)(O)O)cc2)(OCc2ccccc2)OCc2ccccc2)cc1", "Experimental Target": "Tyrosine-protein phosphatase non-receptor type 1 (Homo sapiens, UniProt P18031)", "Assigned Label": "Satisfied"}
{"Compound": "COC(=O)C(Cc1ccc(C(F)(F)P(=O)(O)O)cc1)(Cc1ccc(C(F)(F)P(=O)(O)O)cc1)C(=O)O", "Experimental Target": "Tyrosine-protein phosphatase non-receptor type 1 (Homo sapiens, UniProt P18031)", "Assigned Label": "Not satisfied"}
{"Compound": "O=C(O)c1ccc(CC(Cc2ccc(C(F)(F)P(=O)(O)O)cc2)(C(=O)c2ccccc2)c2ccccc2)cc1 (stereo not drawn)", "Experimental Target": "Tyrosine-protein phosphatase non-receptor type 1 (Homo sapiens, UniProt P18031)", "Assigned Label": "Not satisfied"}
{"Compound": "CC(C)OC(=O)C(Cc1ccc(C(F)(F)P(=O)(O)O)cc1)(Cc1ccc(C(F)(F)P(=O)(O)O)cc1)C(=O)OC(C)C", "Experimental Target": "Tyrosine-protein phosphatase non-receptor type 1 (Homo sapiens, UniProt P18031)", "Assigned Label": "Satisfied"}
